Molecular target: NR2F6 (Homo sapiens)
Construct: expressed in transfected cells; also transient transfection
Assay: NR2F6 agonist screening, Firefly signal cmpd/DMSO
Assay type: cell-based
Conditions: C11 analogs follow set (Tables 2-10), repeat 2
hey, just use met if measured Firefly, cmpd/DMSO repeat 2 is less than 2, otherwise not met

CCN(CC)c1ccc2cc(S(=O)(=O)c3ccc(Cl)cc3)c(=O)oc2c1    not met

Q: Does the reported Firefly, cmpd/DMSO repeat 2 of O=C(NCc1ccc(F)cc1)c1ccc2oc(=O)c(S(=O)(=O)c3ccc(Cl)cc3)cc2c1 stay below 2?
Result: not met

Q: Below 2 on Firefly, cmpd/DMSO repeat 2? Entry COc1ccc2cc(S(=O)(=O)c3ccc(C(C)C)cc3)c(=O)oc2c1
Result: not met

Q: Strictly below 2: is that where Firefly, cmpd/DMSO repeat 2 of COc1ccc(NC(=O)c2ccc3oc(=O)c(S(=O)(=O)c4ccc(F)cc4)cc3c2)cc1 sits?
Result: not met

Q: Regarding O=c1oc2ccc([N+](=O)[O-])cc2cc1S(=O)(=O)c1ccc(Cl)c(Cl)c1 , kindly confirm whether its Firefly, cmpd/DMSO repeat 2 is beneath 2.
Result: not met

Q: Hello, is Firefly, cmpd/DMSO repeat 2 of the following compound strictly smaller than 2? Cc1ccc(S(=O)(=O)c2cc3ccccc3oc2=O)cc1C
Result: not met

Q: Regarding Cc1ccc(NC(=O)c2ccc3oc(=O)c(S(=O)(=O)c4ccc(Cl)cc4)cc3c2)cc1C , kindly confirm whether its Firefly, cmpd/DMSO repeat 2 is beneath 2.
Result: met

Q: Given O=c1oc2ccc(Cl)cc2cc1S(=O)(=O)c1cccc(Cl)c1 , is recorded Firefly, cmpd/DMSO repeat 2 strictly lower than 2?
Result: not met

----------
Target: NR2F6 (Homo sapiens, UniProt P10588)
Construct: expressed in transfected cells; also transient transfection
Sequence (P10588 1-404): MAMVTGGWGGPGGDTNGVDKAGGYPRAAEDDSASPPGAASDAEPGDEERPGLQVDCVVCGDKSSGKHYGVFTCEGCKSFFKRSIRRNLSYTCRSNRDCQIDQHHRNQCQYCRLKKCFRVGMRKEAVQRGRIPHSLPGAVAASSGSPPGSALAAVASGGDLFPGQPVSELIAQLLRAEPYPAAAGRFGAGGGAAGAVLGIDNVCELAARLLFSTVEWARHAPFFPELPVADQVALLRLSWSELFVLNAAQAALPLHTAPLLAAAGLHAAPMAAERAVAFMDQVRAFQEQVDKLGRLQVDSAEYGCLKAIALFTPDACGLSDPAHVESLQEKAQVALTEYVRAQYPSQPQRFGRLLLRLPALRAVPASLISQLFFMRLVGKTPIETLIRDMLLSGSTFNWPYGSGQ
Assay: NR2F6 agonist screening, Firefly signal cmpd/DMSO
Assay type: cell-based
Details: F4; 10% FBS; 10 uM
Kindly state Firefly, F4, 10% FBS, cmpd/DMSO (mean) for each of the entries shown.
One number for each entry.

O=S1(=O)C[C@H](NCC2CCCO2)[C@@H](S(=O)(=O)c2cccs2)C1 (stereo partly drawn) [Compound D134]    2.1
O=S1(=O)C[C@H](N2CCCCC2)[C@@H](S(=O)(=O)c2cccs2)C1 [Compound D105]    8.9

Count: 3. Required value per item: Firefly, F4, 10% FBS, cmpd/DMSO (mean).
1. CC(C)CCN[C@H]1CS(=O)(=O)C[C@@H]1S(=O)(=O)c1cccs1 [Compound D110]
2. O=S1(=O)C[C@H](NCCc2cccs2)[C@@H](S(=O)(=O)c2ccc(Cl)cc2)C1 [Compound D128]
3. CCCN[C@H]1CS(=O)(=O)C[C@@H]1S(=O)(=O)c1ccc(Cl)cc1 [Compound D117]

Result:
[2.4, 1.4, 4.1]

# batch: return Firefly, F4, 10% FBS, cmpd/DMSO (mean) for each of the 3 compounds below
1. O=S1(=O)C[C@H](NC2CCCC2)[C@@H](S(=O)(=O)c2ccc(F)cc2)C1 [Compound D114]
2. O=S1(=O)C[C@H](NCc2ccco2)[C@@H](S(=O)(=O)c2cccs2)C1 [Compound D135]
3. CCC(C)N[C@H]1CS(=O)(=O)C[C@@H]1S(=O)(=O)c1ccc(C)cc1 (stereo partly drawn) [Compound D113]

Result:
[1.7, 1.8, 2.1]

Batch lookup, Firefly, F4, 10% FBS, cmpd/DMSO (mean) per entry.
1. CC(=O)N1CCN([C@H]2CS(=O)(=O)C[C@@H]2S(=O)(=O)c2ccc(F)c(C)c2)CC1 [Compound D116]
2. C[C@@H]1C[C@H](C)CN([C@H]2CS(=O)(=O)C[C@@H]2S(=O)(=O)c2cccs2)C1 [Compound D109]
3. CCC(C)N[C@H]1CS(=O)(=O)C[C@@H]1S(=O)(=O)c1ccc(Cl)cc1 (stereo partly drawn) [Compound D121]
4. O=S1(=O)C[C@H](NCCCc2ccccc2)[C@@H](S(=O)(=O)c2ccc(Cl)cc2)C1 [Compound D137]
5. Cc1cc(S(=O)(=O)[C@H]2CS(=O)(=O)C[C@@H]2NCC2CCCO2)ccc1F (stereo partly drawn) [Compound D115]

Result:
1: 1.3; 2: 6.5; 3: 3.3; 4: 4.6; 5: 0.7

Count: 2. Required value per item: Firefly, F4, 10% FBS, cmpd/DMSO (mean).
1. CC(C)OCCCN[C@H]1CS(=O)(=O)C[C@@H]1S(=O)(=O)c1ccc(Cl)cc1 [Compound D138]
2. COc1ccc(CCN[C@H]2CS(=O)(=O)C[C@@H]2S(=O)(=O)c2ccc(Cl)cc2)cc1OC [Compound D129]

Result:
[3.1, 1.9]
